tested_target: Ysk4 (Homo sapiens)
Construct: purchased DiscoveRx Corporation (KinomeScan service)
Sequence (Q56UN5 whole entry): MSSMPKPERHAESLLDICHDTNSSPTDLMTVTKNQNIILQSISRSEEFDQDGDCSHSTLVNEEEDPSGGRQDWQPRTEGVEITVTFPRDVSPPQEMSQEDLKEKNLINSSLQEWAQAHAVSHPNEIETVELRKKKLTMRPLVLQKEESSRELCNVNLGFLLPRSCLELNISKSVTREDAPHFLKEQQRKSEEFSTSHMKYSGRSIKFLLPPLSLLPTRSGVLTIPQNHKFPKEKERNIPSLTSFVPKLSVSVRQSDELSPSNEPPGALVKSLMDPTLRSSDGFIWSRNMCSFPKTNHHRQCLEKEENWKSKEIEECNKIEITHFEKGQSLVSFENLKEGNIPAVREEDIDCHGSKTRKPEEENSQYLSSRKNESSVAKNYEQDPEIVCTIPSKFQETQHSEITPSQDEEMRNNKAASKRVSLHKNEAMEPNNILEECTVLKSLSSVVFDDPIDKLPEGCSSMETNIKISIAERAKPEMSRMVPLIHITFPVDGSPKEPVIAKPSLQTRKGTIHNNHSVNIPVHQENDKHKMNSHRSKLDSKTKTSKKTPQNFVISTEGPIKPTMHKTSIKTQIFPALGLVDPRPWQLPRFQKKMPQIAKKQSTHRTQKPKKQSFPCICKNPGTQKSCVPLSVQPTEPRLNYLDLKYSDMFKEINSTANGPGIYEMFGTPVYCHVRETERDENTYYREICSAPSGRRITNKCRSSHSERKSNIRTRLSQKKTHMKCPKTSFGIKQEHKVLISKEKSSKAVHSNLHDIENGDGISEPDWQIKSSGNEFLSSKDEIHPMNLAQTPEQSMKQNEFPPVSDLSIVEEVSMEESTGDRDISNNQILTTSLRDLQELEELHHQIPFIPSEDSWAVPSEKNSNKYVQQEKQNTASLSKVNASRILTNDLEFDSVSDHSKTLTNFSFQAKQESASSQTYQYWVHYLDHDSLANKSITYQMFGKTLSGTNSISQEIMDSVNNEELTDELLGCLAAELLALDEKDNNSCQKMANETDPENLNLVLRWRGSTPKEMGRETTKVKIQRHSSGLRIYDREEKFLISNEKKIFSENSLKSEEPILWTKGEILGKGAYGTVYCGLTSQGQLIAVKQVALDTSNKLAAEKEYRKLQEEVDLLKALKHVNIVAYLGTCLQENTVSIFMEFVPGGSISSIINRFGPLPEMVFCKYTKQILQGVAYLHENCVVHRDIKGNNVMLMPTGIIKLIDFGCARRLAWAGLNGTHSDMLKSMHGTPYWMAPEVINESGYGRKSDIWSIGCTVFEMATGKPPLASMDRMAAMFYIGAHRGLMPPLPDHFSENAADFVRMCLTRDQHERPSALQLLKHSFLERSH
protocol_text: KinomeScan competition binding assay
reported_property: Kd (nM)
One number for each entry, in nM.

query: Lab request: please report Kd under test system Ysk4 (Homo sapiens) for Nc1nc(Nc2ccc3c(c2)CC[C@@H](N2CCCC2)CC3)nn1-c1cc2c(nn1)-c1ccccc1CCC2
result: 1.6

----------
tested_target: Abl(Q252H) (Homo sapiens, UniProt P00519, Q252H)
protocol_text: KinaseProfiler kinase activity assay
Format: biochemical
Parameters: purchased EMD Millipore Corp. (KinaseProfiler service)
particulars: ATP at Km
reported_property: IC50 (nM)
Answers are plain numbers, in nM.

query: For the record Nc1nc(Nc2ccc3c(c2)CC[C@@H](N2CCCC2)CC3)nn1-c1cc2c(nn1)-c1ccccc1CCC2 , what value of IC50 is listed for Abl(Q252H) (Homo sapiens, UniProt P00519, Q252H)?
result: 16
